# tested_system: DGKα (Homo sapiens (Human)); further: full length DGKα 7.5 nM
# Sequence (P23743 whole entry): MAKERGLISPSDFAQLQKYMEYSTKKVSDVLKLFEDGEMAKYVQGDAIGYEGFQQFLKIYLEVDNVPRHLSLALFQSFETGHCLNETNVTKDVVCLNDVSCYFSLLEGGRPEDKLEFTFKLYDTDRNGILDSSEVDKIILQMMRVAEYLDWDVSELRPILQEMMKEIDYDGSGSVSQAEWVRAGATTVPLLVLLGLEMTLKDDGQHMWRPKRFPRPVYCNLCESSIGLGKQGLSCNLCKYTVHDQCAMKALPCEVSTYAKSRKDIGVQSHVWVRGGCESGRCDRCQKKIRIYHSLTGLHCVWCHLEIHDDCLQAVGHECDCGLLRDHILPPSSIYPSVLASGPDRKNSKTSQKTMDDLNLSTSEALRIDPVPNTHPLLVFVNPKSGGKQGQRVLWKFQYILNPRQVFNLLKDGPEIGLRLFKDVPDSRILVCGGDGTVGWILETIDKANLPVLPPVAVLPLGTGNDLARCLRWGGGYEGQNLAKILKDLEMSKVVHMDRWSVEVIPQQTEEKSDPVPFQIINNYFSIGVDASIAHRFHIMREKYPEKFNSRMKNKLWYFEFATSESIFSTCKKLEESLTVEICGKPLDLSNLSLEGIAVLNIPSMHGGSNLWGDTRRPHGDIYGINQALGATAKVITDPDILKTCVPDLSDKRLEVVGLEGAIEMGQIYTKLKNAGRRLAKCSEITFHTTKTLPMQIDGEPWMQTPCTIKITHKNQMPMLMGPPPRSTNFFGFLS
pIC50: −log10 of the molar value.
property_name: pIC50

Example cases with answers are listed next.
- molecule: "CC[C@H]1CN(C(C)c2ccc(CC3COC3)cc2)[C@H](CC)CN1c1cc(=O)n(C)c2cn(CC#N)nc12 (stereo partly drawn)"
  pIC50: 7.32
- molecule: "CC[C@H]1CN(C(C)c2cc(F)c(CN(C)C)c(F)c2)[C@H](CC)CN1c1cc(=O)n(C)c2cn(CC#N)nc12 (single isomer, unassigned) [Compound A25a]"
  pIC50: 5.47
- molecule: "CC[C@H]1CN(C(C)c2ccc(C(=O)N3CCC(OC)CC3)cc2)[C@H](CC)CN1c1cc(=O)n(C)c2cn(CC#N)nc12 (single isomer, unassigned) [Compound A194b]"
  pIC50: 5.60

P: CC[C@H]1CN(C(C)c2ccn3nc(C)c(F)c3c2)[C@H](CC)CN1c1cc(=O)n(C)c2cn(CC#N)nc12 (single isomer, unassigned) [Compound A169a]
Q: CC[C@@H]1CN(c2cc(=O)n(C)c3cn(CC#N)nc23)[C@@H](C)CN1[C@@H](C)c1ccc2ncoc2c1 (single isomer, unassigned) [Compound A85a]
R: Cc1cc2nc(C(C)N3C[C@H](C)N(c4cc(=O)n(C)c5cn(CC#N)nc45)C[C@H]3C)ccc2s1 (stereo partly drawn) [Compound A155]
[Q] Order the records so the highest pIC50 appears first and the lowest last. Write out the labels following the order that was asked for.
[A] Q, R, P
(Q: 6.77, R: 6.42, P: 5.49)
